System: SW-620 colon
Assay: NCI-60 one-dose screen, 48 h (100 = growth as untreated, 0 = no growth, -100 = all killed)
Details: 10 µM
About 83,000 compounds went through this panel and 20% of them were active in at least one assay; those are over-represented in the sample as a whole.
growth values by entry
Express it in %; write the number only.

Looking up COc1ccc(/C(C)=N/N=C2C(=O)N(C)c3ccc(Br)cc32)cc1S(N)(=O)=O , I found its growth recorded as 85.7

Notebook: C=C1CC[C@H](C(=C)C)[C@H]2C=C(C)C(=O)C3=C(C(=O)[C@@](C)(O)C3)[C@H]12 , growth read as -53.3

What the record says about O=C(CNc1nc(-c2ccccc2)cs1)Nc1cccc([N+](=O)[O-])c1 : growth is -66.7

Lab book: growth of Cc1ccc(-c2cc(C(=O)N=Nc3c(O)[nH]c4ccc(Br)cc34)c3ccccc3n2)cc1 noted as 34.1

###

Test system: HCT-15 colon
Experiment: NCI-60 one-dose screen, 48 h (100 = growth as untreated, 0 = no growth, -100 = all killed)
Settings: 10 µM
About 83,000 compounds went through this panel and 20% of them were active in at least one assay; those are over-represented in the sample as a whole.
Listed here are compounds together with their documented growth.
Answer in %, number only, no unit symbol.

{"structure string": "CN1CCN(Cc2ccc(C(=O)Nc3cccc(Nc4ccc5cc(O)ccc5n4)c3)cc2C(F)(F)F)CC1", "system": "HCT-15 colon", "measured attribute": "growth", "display unit": "%", "recorded number": -81}
{"structure string": "CS(=O)(=O)Nc1ccc(-c2ccc3c(c2)ncn3-c2ccc(NC(=O)Nc3ccc(Cl)c(C(F)(F)F)c3)cc2)cc1", "system": "HCT-15 colon", "measured attribute": "growth", "display unit": "%", "recorded number": -91.3}
{"structure string": "O=C1NC(=NC23CC4CC(CC(C4)C2)C3)N/C1=C\\c1ccc2ncsc2c1", "system": "HCT-15 colon", "measured attribute": "growth", "display unit": "%", "recorded number": -3.34}

For Cc1ccc(/C=C/C(=O)c2ccc(NC(=O)CSc3nnc(-c4c[nH]c5ccccc45)n3-c3ccccc3)cc2)c(C)c1 the compound record lists growth as 51.4

COc1cc2c(cc1OC)CN(CCCCOc1cc(O)c3c(=O)cc(-c4ccccc4)oc3c1)CC2 has a reported growth of 21.4

Lookup result for CC(=O)c1ccc(NC(=O)NCn2c(=O)[nH]c3ccccc3c2=O)cc1 ; measured growth: 101

Reported growth for CC1(C)[C@@H](NCO)CC[C@]2(C)[C@H]3C(=O)C=C4[C@@H]5C[C@](C)(CO)CC[C@]5(C)CC[C@@]4(C)[C@]3(C)CC[C@@H]12 was 13.6

The value of growth measured for the compound CC(=O)c1ccc(Nc2nc(SCCC(C)C)nc(-c3ccc(F)cc3)c2C#N)cc1 turned out to be 63.8

###

Test system: UO-31 renal
Assay: NCI-60 one-dose screen, 48 h
Conditions: 10 µM
About 83,000 compounds went through this panel and 20% of them were active in at least one assay; those are over-represented in the sample as a whole. Activity calls are given as the source filed them. The calls were made as follows: active = growth percent below 10; inactive = the rest.
Hello, when you answer, please use one of the following outcomes: active, inactive

Worked examples, 4 molecules total:
{"molecule": "CN(C)c1ccc(/C=C/C(=O)c2ccc(NC(=O)CN3C(=O)NC(C)(c4ccccc4)C3=O)cc2)cc1 (stereo not given)", "group label": "inactive"}
{"molecule": "COC[C@@H](CC(C)C)N=C1NC(=O)/C(=C/c2ccc3ncsc3c2)N1", "group label": "active"}
{"molecule": "CCCCSc1nc(Nc2ccc(/C(C)=N/NC(N)=S)cc2)c(C#N)c(-c2ccccc2)n1", "group label": "inactive"}
{"molecule": "COc1cc(/C=C/C(=O)c2ccc(NC(=O)CN3C(=O)NC(C)(c4ccccc4)C3=O)cc2)cc(OC)c1OC (stereo not given)", "group label": "inactive"}

Now examine the next entry.
Short answer needed: outcome of this test for O/N=C(\CSc1nnc(-c2c[nH]c3ccccc23)n1-c1ccccc1)c1ccc(Br)cc1 ?
active

###

Test system: DU-145 prostate
Experiment: NCI-60 one-dose screen, 48 h (100 = growth as untreated, 0 = no growth, -100 = all killed)
Conditions: 10 µM
About 83,000 compounds went through this panel and 20% of them were active in at least one assay; those are over-represented in the sample as a whole.
Criterion: growth strictly under 80%. Met: fulfilled. Not met: not fulfilled.

Worked cases, answers included:
{"structure string": "C#Cc1ccc(S(=O)(=O)Nc2cccc(-c3csc(NC(C)=O)n3)c2)cc1", "system": "DU-145 prostate", "group label": "not fulfilled"}
{"structure string": "O=C1Nc2ccc(Cl)cc2/C1=C/c1ccc(OCc2ccccn2)cc1", "system": "DU-145 prostate", "group label": "not fulfilled"}
{"structure string": "CN1C(=O)/C(=C/c2ccc3ncsc3c2)NC1=NC12CC3CC(CC(O)(C3)C1)C2", "system": "DU-145 prostate", "group label": "fulfilled"}

Consider now this further compound.
Does Cc1ccc(CSc2nc(-c3ccc(F)cc3)c(C#N)c(=O)[nH]2)cc1 have growth strictly under 80%?
not fulfilled

###

System: NCI-H460 lung
Assay: NCI-60 one-dose screen, 48 h
Conditions: 10 µM
Protocol: Growth inhibition of the NCI-H460 human Non-Small Cell Lung tumor cell line is measured as a screen for anti-cancer activity. Cells are grown in 96 well plates and exposed to the test compound for 48 hours. Compounds are tested at a single concentration, which is 10^-5 M for most compounds. The reported endpoint is percent growth (GI% or GIPRCNT), where numbers from 0 - 100% represent growth inhibition, and numbers from -100% - 0 represent cell death. […]
This is part of a sample that, as a whole, favours compounds with a hit. Of some 83,000 tested, about 20% had one in any assay. The source made the active and inactive calls. The calls were made as follows: active = growth percent below 10; inactive = the rest.
Your answer must be one of the following: t = active, f = inactive

{"structure string": "O=c1nc(-c2ccccc2)cc(-c2cc3ccccc3nc2Cl)[nH]1", "system": "NCI-H460 lung", "group label": "t"}
{"structure string": "Brc1ccc(N/N=C/c2c[nH]c3ccccc23)nc1", "system": "NCI-H460 lung", "group label": "t"}
{"structure string": "Cc1ccc(C(=O)NCCCNc2nc(Nc3ccc(N4CCN(C)CC4)cc3)nc3ccsc23)cc1", "system": "NCI-H460 lung", "group label": "f"}
{"structure string": "O=C(CSc1nnc(-c2c[nH]c3ccccc23)n1-c1ccccc1)Nc1ccc(C(=O)/C=C/c2ccc(Cl)cc2)cc1", "system": "NCI-H460 lung", "group label": "f"}
{"structure string": "CC(=O)Nc1nc(-c2ccc(N3CCN(C)CC3)c(NS(=O)(=O)c3cccc4c(N(C)C)cccc34)c2)cs1", "system": "NCI-H460 lung", "group label": "f"}
{"structure string": "COc1cc2c(cc1OC)CN(CCCCOc1cc(O)c3c(=O)cc(-c4ccccc4)oc3c1)CC2", "system": "NCI-H460 lung", "group label": "f"}

Can you look up the reported call for Cc1ccc(-c2cc(C(=O)N=Nc3c(O)[nH]c4ccccc34)c3ccccc3n2)cc1 for me?
t

Given Cc1cc(=O)oc2cc(OCCCCOc3ccc(/C=C/C(=O)Nc4ccccc4[N+](=O)[O-])cc3)ccc12 , state the outcome it received in this test.
f

Tell me the assay call for CC1(C)CC[C@]2(C(=O)N3CCOCC3)CC[C@]3(C)C(=CC[C@@H]4[C@@]5(C)CC[C@H](NCO)C(C)(C)[C@@H]5CC[C@]43C)[C@H]2C1 please.
t

What was the test verdict on O=C(O)CCCCCCCCCCN1C(=O)/C(=C/c2cnc(-c3ccc(Cl)cc3)s2)SC1=S ?
t

Per the assay record, what outcome was assigned to Nc1nc(-c2ccccc2)cc(-c2cc3ccccc3nc2Cl)n1 ?
f

Field: outcome | Entry: N#C/C(=C\c1ccc(N(c2ccccc2)c2ccccc2)cc1)C(N)=O
t

Test call, this compound: O=C(Nc1cccc([N+](=O)[O-])c1)Nc1cccc([N+](=O)[O-])c1
f

State the result this test recorded for O=C1NC(=NC2CCCCCC2)N/C1=C\c1ccc2ncoc2c1 .
f

Which result was noted for this compound in the test: Cc1ccc(C(=O)N/C(=C2/OCCN2C)[P+](c2ccccc2)(c2ccccc2)c2ccccc2)cc1
f

Please state the recorded outcome for this compound: Cc1ccc(/C(CSc2nnc(-c3c[nH]c4ccccc34)n2-c2ccccc2)=N/O)cc1
t

Outcome? COc1cc(/C=C/C(=O)c2ccc(NC(=O)CSc3nnc(-c4c[nH]c5ccccc45)n3-c3ccccc3)cc2)cc(OC)c1OC
f

Can you look up the reported call for Cc1cccc(NC(=O)CSc2nc3ccc(F)cc3c(=O)n2-c2ccc(Cl)cc2)c1C for me?
f

###

Test system: PC-3 prostate
Experiment: NCI-60 one-dose screen, 48 h (100 = growth as untreated, 0 = no growth, -100 = all killed)
Settings: 10 µM
About 83,000 compounds went through this panel and 20% of them were active in at least one assay; those are over-represented in the sample as a whole.
measured attribute: growth (%)
Dear colleague, please return just the value in %, with no unit written.

Entry Cc1cccc(-c2nc(Nc3ccccc3C(=O)O)c3ccccc3n2)c1 ; growth = 29.5

// growth lookup, compound = COc1cccc2nc(Nc3ccc(F)c(NC(=O)c4ccc(CN5CCN(C)CC5)c(C(F)(F)F)c4)c3)ccc12 , result: -8.36

get_value(item= COc1ccc2nc(Nc3cccc(NC(=O)c4ccc(CN5CCN(C)CC5)c(C(F)(F)F)c4)c3)ccc2c1 , readout=growth) returns -8.06

Lab note: COc1ccc2[nH]c(O)c(N=NC(=O)COc3ccc(NC(=O)Nc4ccc(Cl)cc4)cc3)c2c1 gave growth of 18
